target: T1, human pro-myostatin (human, UniProt O14793 24-375, biotinylated (in the SPR assay)); assay: Ab KD, summary Table 11; method and antigen not stated there
T1 construct: Disulfide-linked homodimer; also called proGDF8 (human)
Measured pKd of individual entries
Please express pKd as -log10 of the molar concentration.

Reference set, count: 6
**Q:** Check the records and state pKd for Ab123 (antibody, human IgG4 S228P, kappa, V domains shown) VH: EVQLVESGGGLVQPGGSLRLSCAASGFTFSKYDMSWVRQAPGKGLELVASISSSGGTRYYPDSVKGRFTISRDNAKNSLYLQMNSLRAEDTAVYYCAKDLWVASPGYGMDVWGQGTTVTVSS VL: DIVMTQSPLSLPVTPGEPASISCRSSQSLLHSSGHNYLHWYLQKPGQSPQLLIYLGSIRAPGVPDRFSGSGSGTDFTLKISRVEAEDVGVYYCMQALLNPPTFGGGTKVEIKR
**A:** 9.17

**Q:** Check the records and state pKd for Ab105 (antibody, human IgG4 S228P, kappa, V domains shown) VH: EVQLVESGGGLVQPGGSLRLSCAASGSAFSSYGMSWVRQAPGKGLELVASIGGTGATYYPDSVKGRFTISRDNAKNSLYLQMNSLRAEDTAVYYCARDLLVRFLEWGHYYGMDVWGQGTTVTVSS VL: DIVMTQSPLSLPVTPGEPASISCRSSQSLLHSSGYNFLHWYLQKPGQSPQLLIYAASSRAPGIPDRFSGSGSGTDFTLKISRVEAEDVGVYYCMHGGQGPTFGGGTKVEIKR
**A:** 9.64

**Q:** Check the records and state pKd for Ab109 (antibody, human IgG4 S228P, kappa, V domains shown, human IgG4 in the EM experiment; also called Ab109 Human IgG4) VH: EVQLVESGGGLVQPGGSLRLSCAASGFTFSSYGMSWVRQAPGKGLELVASFTGSGGTYYPDSVKGRFTISRDNAKNSLYLQMNSLRAEDTAVYYCARDLLIRFLEWSHYYGMDVWGQGTTVTVSS VL: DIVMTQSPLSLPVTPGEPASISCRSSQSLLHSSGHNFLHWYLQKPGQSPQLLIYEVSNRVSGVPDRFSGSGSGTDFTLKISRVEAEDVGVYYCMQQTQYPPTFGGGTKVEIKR
**A:** 9.24

**Q:** Check the records and state pKd for Ab132 (antibody, human IgG4 S228P, kappa, V domains shown) VH: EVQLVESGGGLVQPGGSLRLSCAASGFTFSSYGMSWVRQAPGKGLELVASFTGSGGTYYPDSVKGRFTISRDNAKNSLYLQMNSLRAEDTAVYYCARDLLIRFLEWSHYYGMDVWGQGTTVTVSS VL: DIVMTQSPLSLPVTPGEPASISCRSSQSLLHSSGHNFLHWYLQKPGQSPQLLIYEVSNRVSGVPDRFSGSGSGTDFTLKISRVEAEDVGVYYCQQQTQYPPTFGGGTKVEIKR
**A:** 9.03

**Q:** Check the records and state pKd for Ab130 (antibody, human IgG4 S228P, kappa, V domains shown) VH: EVQLVESGGGLVQPGGSLRLSCAASGFTFTSYGMSWVRQAPGKGLELVASITGSGGETYYPDSVKGRFTISRDNAKNSLYLQMNSLRAEDTAVYYCARDLLVRFLEWSHYYGMDVWGQGTTVTVSS VL: DIVMTQSPLSLPVTPGEPASISCRSSQSLLHSSGHNFLHWYLQKPGQSPQLLIYETSNRAPGIPDRFSGSGSGTDFTLKISRVEAEDVGVYYCQQATQFPRPFGGGTKVEIKR
**A:** 9.46

**Q:** Check the records and state pKd for Ab112 (antibody, human IgG4 S228P, kappa, V domains shown) VH: QVQLVQSGAEVKKPGASVKVSCKVSGGTFGIYAIHWVRQAPGKGLEWMGGTIPVFGTAIYAQKFQGRVTMTEDTSTDTAYMELSSLKSEDTAVYYCASLTGIAAAGTHPARGGMDVWGQGTTVTVSS VL: DIQMTQSPSSVSASVGDRVTITCRASPSISSYLAWYQQKPGKAPKLLIYAASRLQSGVPSRFSGSGSGTDFTLTISSLQPEDFANYYCQEYLSFPLTFGGGTKVEIKR
**A:** 8.45

Now consider a different binder.
**Q:** Check the records and state pKd for Ab131 (antibody, human IgG4 S228P, kappa, V domains shown) VH: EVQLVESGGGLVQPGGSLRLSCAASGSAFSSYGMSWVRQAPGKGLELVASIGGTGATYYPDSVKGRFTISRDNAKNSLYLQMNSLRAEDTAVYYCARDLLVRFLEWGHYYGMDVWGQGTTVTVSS VL: DIVMTQSPLSLPVTPGEPASISCRSSQSLLHSSGYNFLHWYLQKPGQSPQLLIYAASSRAPGIPDRFSGSGSGTDFTLKISRVEAEDVGVYYCQHGGQGPTFGGGTKVEIKR
**A:** 9.81
